Overview of reported Population Fragmented Nuclei (%) across a group of compounds:
- Tested on: U2OS
- procedure_summary: Multiplex assay against U2OS
- Assay type: toxicity, cell-based
- conditions_used: human, 12 h, 10 µM, compound concentration 10 uM, replicate 2

given_smiles: COc1cc(-n2cnc3cc(-c4ccc(Cl)cc4)sc3c2=O)ccc1OCCN1CCCC1
Population Fragmented Nuclei (%): 22
//
given_smiles: CN1CCN(CCOc2cc(OC3CCOCC3)c3c(Nc4c(Cl)ccc5c4OCO5)ncnc3c2)CC1
Population Fragmented Nuclei (%): 9
//
given_smiles: Cc1nc(-c2ccc(-c3ccc(C(=O)N4CCc5cc6c(cc54)C4(CCN(C)CC4)CO6)cc3)c(C)c2)no1
Population Fragmented Nuclei (%): 7
//
given_smiles: CC[C@H](C)C(=O)O[C@H]1C[C@@H](C)C=C2C=C[C@H](C)[C@H](CC[C@@H]3C[C@@H](O)CC(=O)O3)[C@H]21
Population Fragmented Nuclei (%): 4
//
given_smiles: Cn1cc(-c2[nH]c3cc(NC(=O)[C@H](N)C4CCCCC4)cc4c3c2C=NNC4=O)cn1
Population Fragmented Nuclei (%): 37
//
given_smiles: Cc1nc(-c2cn3c(n2)-c2ccc(-c4cnn(C(C)(C)C(N)=O)c4)cc2OCC3)n(C(C)C)n1
Population Fragmented Nuclei (%): 9
//
given_smiles: Cc1[nH]c(/C=C2\C(=O)Nc3ccc(S(=O)(=O)N(C)c4cccc(Cl)c4)cc32)c(C)c1C(=O)N1CCN(C)CC1
Population Fragmented Nuclei (%): 10

---

- Tested on: HEK-293T
- procedure_summary: Multiplex assay against HEK293T
- Type: toxicity, cell-based
- conditions_used: human, 24 h, 10 µM, compound concentration 10 uM, replicate 2
compounds and their reported Population Apoptotic (%)

compound: CN1CCN(c2ccc(OC(F)(F)F)c(Nc3ncc4c(n3)-c3c(c(C(N)=O)nn3CCO)CC4)c2)CC1
Population Apoptotic (%): 42

compound: Cc1nc(-c2cn3c(n2)-c2ccc(-c4cnn(C(C)(C)C(N)=O)c4)cc2OCC3)n(C(C)C)n1
Population Apoptotic (%): 3

compound: COc1cccc([C@@H](C)NCCCc2ccccc2Cl)c1.Cl [TECALCET HYDROCHLORIDE]
Population Apoptotic (%): 63

compound: Cn1cc(-c2[nH]c3cc(NC(=O)[C@H](N)C4CCCCC4)cc4c3c2C=NNC4=O)cn1
Population Apoptotic (%): 72

---

- Test system: U2OS
- procedure_summary: Multiplex assay against U2OS
- Assay type: toxicity, cell-based
- conditions_used: human, 12 h, 10 µM, compound concentration 10 uM, replicate 1

molecule: NC(=O)Nc1cc(-c2cccc(F)c2)sc1C(=O)N[C@H]1CCCNC1
assay_target: U2OS
units_label: %
Population Fragmented Nuclei (%): 28

molecule: OC1(c2ccc(Cl)cc2)CCN(Cc2c[nH]c3ccccc23)CC1
assay_target: U2OS
units_label: %
Population Fragmented Nuclei (%): 15

molecule: C[C@@H](NCCCc1cccc(C(F)(F)F)c1)c1cccc2ccccc12.Cl [CINACALCET HYDROCHLORIDE]
assay_target: U2OS
units_label: %
Population Fragmented Nuclei (%): 14

molecule: C=CC(=O)Nc1cc2c(Nc3ccc(F)c(Cl)c3)ncnc2cc1OCCCN1CCOCC1.Cl.Cl [CANERTINIB DIHYDROCHLORIDE]
assay_target: U2OS
units_label: %
Population Fragmented Nuclei (%): 5

molecule: CN1CCC[C@@H]1CCO[C@](C)(c1ccccc1)c1ccc(Cl)cc1.O=C(O)/C=C/C(=O)O [CLEMASTINE FUMARATE]
assay_target: U2OS
units_label: %
Population Fragmented Nuclei (%): 24

molecule: Cn1cc(-c2[nH]c3cc(NC(=O)[C@H](N)C4CCCCC4)cc4c3c2C=NNC4=O)cn1
assay_target: U2OS
units_label: %
Population Fragmented Nuclei (%): 14

molecule: CNc1nc(NCc2ccc(NS(C)(=O)=O)cc2Cl)cc(-c2ccccn2)n1
assay_target: U2OS
units_label: %
Population Fragmented Nuclei (%): 13

molecule: Cc1nc(Nc2n[nH]c3c2CN(C(=O)N[C@H](CN(C)C)c2ccccc2)C3(C)C)c2sccc2n1
assay_target: U2OS
units_label: %
Population Fragmented Nuclei (%): 16

molecule: CC[C@H](C)C(=O)O[C@H]1C[C@@H](C)C=C2C=C[C@H](C)[C@H](CC[C@@H]3C[C@@H](O)CC(=O)O3)[C@H]21
assay_target: U2OS
units_label: %
Population Fragmented Nuclei (%): 20

molecule: CN(C)C(=O)N[C@H]1CC[C@H](CCN2CCN(c3cccc(Cl)c3Cl)CC2)CC1.Cl [CARIPRAZINE HYDROCHLORIDE]
assay_target: U2OS
units_label: %
Population Fragmented Nuclei (%): 15

molecule: O=C1NCN(c2ccccc2)C12CCN(CCCOc1ccc(F)cc1)CC2 [SPIRAMIDE]
assay_target: U2OS
units_label: %
Population Fragmented Nuclei (%): 16

molecule: CC(C)(O)CNc1ncc(-c2ccnc(Nc3ccnc(Cl)c3)n2)c(CC2CC2)n1
assay_target: U2OS
units_label: %
Population Fragmented Nuclei (%): 18

molecule: COc1cccc([C@@H](C)NCCCc2ccccc2Cl)c1.Cl [TECALCET HYDROCHLORIDE]
assay_target: U2OS
units_label: %
Population Fragmented Nuclei (%): 11

molecule: CC(C)NCC(O)COc1ccc(CCOCC2CC2)cc1.Cl (centres undefined) [BETAXOLOL HYDROCHLORIDE]
assay_target: U2OS
units_label: %
Population Fragmented Nuclei (%): 14

molecule: CN(C)C(=O)/C(C#N)=C/c1ccc(-c2nc3cnc4[nH]ccc4c3n2C2CCCCC2)o1
assay_target: U2OS
units_label: %
Population Fragmented Nuclei (%): 17

molecule: COc1ncc(-c2ccc3nccc(-c4ccnnc4)c3c2)cc1NS(=O)(=O)c1ccc(F)cc1F
assay_target: U2OS
units_label: %
Population Fragmented Nuclei (%): 28

molecule: Cl.N#Cc1ccc2[nH]cc(CCCCN3CCN(c4ccc5oc(C(N)=O)cc5c4)CC3)c2c1 [VILAZODONE HYDROCHLORIDE]
assay_target: U2OS
units_label: %
Population Fragmented Nuclei (%): 29

molecule: Cc1c(-c2ccc(O)cc2)n(Cc2ccc(OCCN3CCCCCC3)cc2)c2ccc(O)cc12
assay_target: U2OS
units_label: %
Population Fragmented Nuclei (%): 24

molecule: CN1CCN(CCOc2cc(OC3CCOCC3)c3c(Nc4c(Cl)ccc5c4OCO5)ncnc3c2)CC1
assay_target: U2OS
units_label: %
Population Fragmented Nuclei (%): 15

---

- Tested on: U2OS
- procedure_summary: Multiplex assay against U2OS
- Format: toxicity, cell-based
- conditions_used: human, 12 h, 10 µM, compound concentration 10 uM, replicate 1
In this scheme, each record receives a class according to its Population Pyknosed Nuclei (%); the ranges are range 1 = under 20%, range 2 = from 20% up to 30%, range 3 = 30% and over

compound: Cc1nc(Nc2n[nH]c3c2CN(C(=O)N[C@H](CN(C)C)c2ccccc2)C3(C)C)c2sccc2n1
assay_target: U2OS
assigned_class: range 2
--
compound: Cn1cc(-c2[nH]c3cc(NC(=O)[C@H](N)C4CCCCC4)cc4c3c2C=NNC4=O)cn1
assay_target: U2OS
assigned_class: range 2
--
compound: Cc1csc2c(N[C@@H](C)CN3CCN(S(=O)(=O)c4ccc(Cl)c(Cl)c4)CC3)ncnc12
assay_target: U2OS
assigned_class: range 2
--
compound: CC(C)(O)CNc1ncc(-c2ccnc(Nc3ccnc(Cl)c3)n2)c(CC2CC2)n1
assay_target: U2OS
assigned_class: range 3
--
compound: c1cn2cc(-c3ccc4cn[nH]c4c3)nc(Nc3ccc(N4CCOCC4)cc3)c2n1
assay_target: U2OS
assigned_class: range 3
--
compound: Cc1nc(-c2ccc(-c3ccc(C(=O)N4CCc5cc6c(cc54)C4(CCN(C)CC4)CO6)cc3)c(C)c2)no1
assay_target: U2OS
assigned_class: range 1
--
compound: CN1CCN(c2ccc(OC(F)(F)F)c(Nc3ncc4c(n3)-c3c(c(C(N)=O)nn3CCO)CC4)c2)CC1
assay_target: U2OS
assigned_class: range 1
--
compound: CN1CCC[C@@H]1CCO[C@](C)(c1ccccc1)c1ccc(Cl)cc1.O=C(O)/C=C/C(=O)O [CLEMASTINE FUMARATE]
assay_target: U2OS
assigned_class: range 3
--
compound: CN1CCCC(n2nc(Cc3ccc(Cl)cc3)c3ccccc3c2=O)CC1.Cl (stereo unspecified) [AZELASTINE HYDROCHLORIDE]
assay_target: U2OS
assigned_class: range 2
--
compound: OC1(c2ccc(Cl)cc2)CCN(Cc2c[nH]c3ccccc23)CC1
assay_target: U2OS
assigned_class: range 3
--
compound: COc1ncc(-c2ccc3nccc(-c4ccnnc4)c3c2)cc1NS(=O)(=O)c1ccc(F)cc1F
assay_target: U2OS
assigned_class: range 3
--
compound: Cc1cc(C)cc(-c2cnc3cc(Cl)c(-c4cccc(O)c4)cc3c2OCCCN)c1
assay_target: U2OS
assigned_class: range 3
--
compound: COc1cccc([C@@H](C)NCCCc2ccccc2Cl)c1.Cl [TECALCET HYDROCHLORIDE]
assay_target: U2OS
assigned_class: range 2
--
compound: C=CC(=O)Nc1cc2c(Nc3ccc(F)c(Cl)c3)ncnc2cc1OCCCN1CCOCC1.Cl.Cl [CANERTINIB DIHYDROCHLORIDE]
assay_target: U2OS
assigned_class: range 1
--
compound: CN(C)CC#Cc1ccc(OCCCc2sc(N3CCc4cccc(C(=O)Nc5nc6ccccc6s5)c4C3)nc2C(=O)O)c(F)c1
assay_target: U2OS
assigned_class: range 1
